Reported values of phytotoxicity rating SETVI for individual entries
- System: green foxtail (Setaria viridis, SETVI)
- Test Description: Greenhouse herbicide screen, pre-emerge application, phytotoxicity rating
- Assay type: in vivo
- Run Parameters: PRE emergent, 63 g ai/ha, 14 days after application, rating scale 0-100
- Procedure: A standard greenhouse herbicide activity screening system was used to evaluate the herbicidal efficacy and crop safety of these test compounds. […] At 14 days after application of the test materials, phytotoxicity ratings were recorded. […]

{"Compound": "Cn1c(C(F)(F)F)cc(=O)n(-c2cc(C(=O)NN=C(C(C)(C)C)C(C)(C)C)c(Cl)cc2F)c1=O [Compound 6-4]", "Tested System": "green foxtail (Setaria viridis, SETVI)", "phytotoxicity rating SETVI": 100}
{"Compound": "CCOC(=O)NNC(=O)c1cc(-n2c(=O)cc(C(F)(F)F)n(C)c2=O)c(F)cc1Cl [Compound 1-23]", "Tested System": "green foxtail (Setaria viridis, SETVI)", "phytotoxicity rating SETVI": 55}
{"Compound": "CC(=NNC(=O)c1cc(-n2c(=O)cc(C(F)(F)F)n(C)c2=O)c(F)cc1Cl)C(C)(C)C [Compound 6-5]", "Tested System": "green foxtail (Setaria viridis, SETVI)", "phytotoxicity rating SETVI": 60}
{"Compound": "CC1CCCC(C)N1N=C(OC(=O)C(Cl)Cl)c1cc(-n2c(=O)cc(C(F)(F)F)n(C)c2=O)c(F)cc1Cl (stereo not drawn) [Compound 4-8]", "Tested System": "green foxtail (Setaria viridis, SETVI)", "phytotoxicity rating SETVI": 65}
{"Compound": "CN(NC(=O)c1cc(-n2c(=O)cc(C(F)(F)F)n(C)c2=O)c(F)cc1Cl)c1ccccc1 [Compound 1-9]", "Tested System": "green foxtail (Setaria viridis, SETVI)", "phytotoxicity rating SETVI": 40}
{"Compound": "CC(=NN=C(OC(=O)C(Cl)Cl)c1cc(-n2c(=O)cc(C(F)(F)F)n(C)c2=O)c(F)cc1Cl)C(C)(C)C [Compound 5-4]", "Tested System": "green foxtail (Setaria viridis, SETVI)", "phytotoxicity rating SETVI": 50}
{"Compound": "CC1CCCC(C)N1NC(=O)c1cc(-n2c(=O)cc(C(F)(F)F)n(C)c2=S)c(F)cc1Cl (stereo not drawn) [Compound 1-15]", "Tested System": "green foxtail (Setaria viridis, SETVI)", "phytotoxicity rating SETVI": 100}
{"Compound": "CC(=NN=C(OS(C)(=O)=O)c1cc(-n2c(=O)cc(C(F)(F)F)n(C)c2=O)c(F)cc1Cl)C(C)(C)C [Compound 5-3]", "Tested System": "green foxtail (Setaria viridis, SETVI)", "phytotoxicity rating SETVI": 55}
{"Compound": "CN1CCN(NC(=O)c2cc(-n3c(=O)cc(C(F)(F)F)n(C)c3=S)c(F)cc2Cl)CC1 [Compound 1-14]", "Tested System": "green foxtail (Setaria viridis, SETVI)", "phytotoxicity rating SETVI": 0}
{"Compound": "CC(=O)OC(=NN=C(C)C(C)(C)C)c1cc(-n2c(=O)cc(C(F)(F)F)n(C)c2=O)c(F)cc1Cl [Compound 5-2]", "Tested System": "green foxtail (Setaria viridis, SETVI)", "phytotoxicity rating SETVI": 70}
{"Compound": "Cn1c(C(F)(F)F)cc(=O)n(-c2cc(C(=O)NNC(=O)OC(C)(C)C)c(Cl)cc2F)c1=O [Compound 1-24]", "Tested System": "green foxtail (Setaria viridis, SETVI)", "phytotoxicity rating SETVI": 10}
{"Compound": "C#CCOC(=NN=C(C(C)(C)C)C(C)(C)C)c1cc(-n2c(=O)cc(C(F)(F)F)n(C)c2=O)c(F)cc1Cl [Compound 5-7]", "Tested System": "green foxtail (Setaria viridis, SETVI)", "phytotoxicity rating SETVI": 30}
{"Compound": "CN(C)NC(=O)c1cc(-n2c(=O)cc(C(F)(F)F)n(C)c2=O)ccc1Cl [Compound 1-4]", "Tested System": "green foxtail (Setaria viridis, SETVI)", "phytotoxicity rating SETVI": 0}
{"Compound": "CC(=O)OC(=NN1C(C)CCCC1C)c1cc(-n2c(=O)cc(C(F)(F)F)n(C)c2=O)c(F)cc1Cl (stereo not drawn) [Compound 4-9]", "Tested System": "green foxtail (Setaria viridis, SETVI)", "phytotoxicity rating SETVI": 100}
{"Compound": "Cn1c(C(F)(F)F)cc(=O)n(-c2cc(C(=O)NN(Cc3ccccc3)Cc3ccccc3)c(Cl)cc2F)c1=O [Compound 1-29]", "Tested System": "green foxtail (Setaria viridis, SETVI)", "phytotoxicity rating SETVI": 99}
